system: 26S proteasome chymotrypsin-like activity (human); assay: cellular 26S proteasome inhibition check – cell-based, U2OS, Proteasome-Glo luminescence, dry powder, set 2, mechanism study for HSF1 activator project, dose response (AID 624445); settings: at 38 µM (top of the series)
Results filed as inconclusive are left out.
Please note: criterion met applies when activity change, negative = inhibition is -20% or greater, and criterion not met applies otherwise.

Example cases with answers are listed next.
[[record]]
compound = "Nc1nc(SCc2ccc(Cl)cc2Cl)ns1"
assigned_label = "criterion met"

[[record]]
compound = "Nc1nc(S(=O)(=O)Cc2ccccc2)ns1"
assigned_label = "criterion met"

[[record]]
compound = "Cc1ccccc1CSc1nnc(N)s1"
assigned_label = "criterion not met"

[[record]]
compound = "Cc1ccccc1CSc1nsc(N)n1"
assigned_label = "criterion not met"

[[record]]
compound = "Cc1ccccc1CSc1n[nH]c(N)n1"
assigned_label = "criterion met"


Kindly determine if activity change, negative = inhibition recorded for `Nc1nc(SCc2ccc(F)cc2)ns1` is above or exactly -20%. criterion not met

// same read-out, input: O=C(Nc1nc(SCc2ccccc2)ns1)C1CC=CCC1 (stereo not drawn) criterion not met

Values from PubChem BioAssay AID624445
